Taken from paper PMC11672400.

procedureText: MTT cell viability / cytotoxicity on normal fibroblasts
Format: cell-based, mouse
conditionNotes: mouse, NCTC clone 929 (L929) mouse fibroblast cells, 25 µg/mL, 48h
Excerpt: Merck chemicals were utilized. Untreated cells were used as control, considered 100% viable cells.
measuredAttribute: viability at 48 h, 25 µg/mL

A selection of reference data follows.
# molecule, measuredAttribute, assayResult
records = [
    ("Cc1nn(CNc2ccc(Cl)cc2)c(C)c1[N+](=O)[O-] [4b]", "viability at 48 h, 25 µg/mL", "61.9%"),
    ("Cc1nn(CNc2cccc(Cl)c2)c(C)c1[N+](=O)[O-] [4e]", "viability at 48 h, 25 µg/mL", "92.2%"),
    ("Cc1nn(CNc2ccc(Br)cc2)c(C)c1[N+](=O)[O-] [4c]", "viability at 48 h, 25 µg/mL", "95.6%"),
    ("Cc1nn(CNc2ccc(I)cc2)c(C)c1[N+](=O)[O-] [4d]", "viability at 48 h, 25 µg/mL", "91.5%"),
    ("Cc1nn(CNc2ccccc2Cl)c(C)c1[N+](=O)[O-] [4f]", "viability at 48 h, 25 µg/mL", "97.8%"),
]

Field: next molecule
## Task Look at this molecule and give its reported viability at 48 h, 25 µg/mL. Cc1nn(CNc2ccc(F)cc2)c(C)c1[N+](=O)[O-] [4a]
## Result 73.5%
